# METHOD: Equilibrium solubility of thebaine in ethanol
# Type: physicochemical
# SETTINGS: organic solvent or mixture, thermodynamic from solid, in 24 h
MEASURED_QUANTITY: solubility thermodynamic at 24 h (mg/mL)
Your answer should be a plain number; it is taken to be in mg/mL.

The value of solubility thermodynamic at 24 h measured for the molecule COC1=CC=C2[C@H]3Cc4ccc(OC)c5c4[C@@]2(CCN3C)[C@H]1O5 [thebaine] turned out to be 10.4

====

# METHOD: Equilibrium solubility of thebaine in ethanol
# Assay type: physicochemical
# SETTINGS: organic solvent or mixture, thermodynamic from solid, in 72 h
MEASURED_QUANTITY: solubility thermodynamic at 72 h (mg/mL)
Your answer should be a plain number; it is taken to be in mg/mL.

The value of solubility thermodynamic at 72 h measured for the compound COC1=CC=C2[C@H]3Cc4ccc(OC)c5c4[C@@]2(CCN3C)[C@H]1O5 turned out to be 10.5

Ref: patent US20250275928A1
